These data points were gathered from PubChem BioAssay (NCI).

Test system: TK-10 renal
PROTOCOL_NOTES: NCI-60 one-dose screen, 48 h (100 = growth as untreated, 0 = no growth, -100 = all killed)
CONDITION_SET: 10 µM unless noted
The panel holds about 83,000 compounds, 20% with a hit somewhere; the sample as a whole holds those more often.
Could you please mark label 1 for values of growth below 50% and label 0 for values at or above it?

MOLECULE	CAT
CCC1CCc2nc3sc(C(=O)Nc4cccc(F)c4)c(N)c3cc2C1 (stereo not given)	label 0
Cc1[nH]n(C(=O)c2ccncc2)c(=O)c1N=Nc1ccc(O)c(C(=O)O)c1	label 0
Nc1ccc(C(OC(=O)c2cc3ccccc3c(Cc3c(O)c(C(=O)OC(c4ccc(N)cc4)(c4ccc(N)cc4)c4ccc(N)cc4)cc4ccccc34)c2O)(c2ccc(N)cc2)c2ccc(N)cc2)cc1	label 1
COc1ccc(C(=O)c2c(N)nc3n2CCCC3)cc1OC	label 0
CC(=O)N1N=C(c2ccc(C)cc2)CC1c1cn(-c2ccccc2)nc1-c1cccc(Nc2ccnc3cc(Cl)ccc23)c1 (stereo not given)	label 0
O=C1Cc2c([nH]c3ccc([N+](=O)[O-])cc23)-c2ccccc2N1	label 1

Ask | Problem: For the molecule O=C(Nc1ccc2ncnc(Nc3ccc(F)c(Cl)c3)c2c1)c1cccs1 , is growth under 50%?
Reply | label 1

Ask | Problem: For the molecule CCOc1cccc(/C=N/NC(=O)Cc2ccc(Nc3ccnc(C(F)(F)F)c3)cc2)c1O , is growth under 50%?
Reply | label 1

Ask | Problem: For the molecule COc1ccc2c(c1)N(CCO)C1=C(C(=O)OC1)C2c1cccc(Br)c1 (stereo not given) , is growth under 50%?
Reply | label 0

Ask | Problem: For the molecule CCOc1ccc([C@@H]2[C@@H](Oc3ccccc3)C(=O)N2c2cc(OC)c(OC)c(OC)c2)cc1 , is growth under 50%?
Reply | label 1
